Cited source: ChEMBL document CHEMBL2311463

The following are reported ΔTm results, target or system CDK9/cyclin T1 (Homo sapiens) (UniProt O60563+P50750).
measured.property: ΔTm (°C)

Worked set:
smiles: Nc1n[nH]c(N)c1/N=N/c1ccc(O)cc1
ΔTm [°C]: 1.57
--
smiles: CNc1nc(C)c(-c2nc(Nc3cccc(C(=O)N4CCOCC4)c3)ncc2C#N)s1
ΔTm [°C]: 2.93
--
smiles: CNc1nc(-c2ccccc2)c(-c2ccnc(Nc3cccc([N+](=O)[O-])c3)n2)s1
ΔTm [°C]: -1.68

P: CNc1nc(-c2ccccc2)c(-c2ccnc(Nc3ccc(C)c(S(=O)(=O)N4CCOCC4)c3)n2)s1
Q: CNc1nc(C)c(-c2nc(Nc3ccc(O)cc3)ncc2C#N)s1
IN: Which value of ΔTm is numerically greater: that of P or that of Q ? Kindly state the label of the option you pick.
OUT: Q
